targetSystem: Somatostatin receptor type 5 (Homo sapiens, UniProt P35346)
Sequence (P35346 whole entry): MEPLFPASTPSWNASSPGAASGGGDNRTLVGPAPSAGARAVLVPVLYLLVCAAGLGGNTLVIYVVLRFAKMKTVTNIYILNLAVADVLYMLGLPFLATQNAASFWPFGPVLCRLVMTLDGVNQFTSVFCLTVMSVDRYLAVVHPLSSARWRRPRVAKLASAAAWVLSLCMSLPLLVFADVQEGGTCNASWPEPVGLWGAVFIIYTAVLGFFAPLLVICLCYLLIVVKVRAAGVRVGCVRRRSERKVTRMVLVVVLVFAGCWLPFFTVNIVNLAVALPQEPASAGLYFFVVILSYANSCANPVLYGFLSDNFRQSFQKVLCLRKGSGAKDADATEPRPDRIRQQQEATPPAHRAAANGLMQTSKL
experimentalProtocol: Inhibitory concentration against human somatostatin receptor type 5 in CHO-K1 cells
Answer each item with its documented pIC50.
Friendly reminder that pIC50 comes from taking -log10 of the concentration in mol/L.

// query pIC50 value for entry `CC(C)[C@@H]1NC(=O)[C@H](CCCCN)NC(=O)[C@@H](Cc2c[nH]c3ccccc23)NC(=O)[C@H](Cc2ccc(O)cc2)NC(=O)[C@@H](NC(=O)[C@H](N)Cc2ccc(N)c(I)c2)CSSC[C@@H](C(=O)N[C@@H](CC(=O)O)C(N)=O)NC1=O` 7.13

// query pIC50 value for entry `CC(C)[C@@H]1NC(=O)[C@H](CCCCN)NC(=O)[C@@H](Cc2c[nH]c3ccccc23)NC(=O)[C@H](Cc2ccc(O)c(I)c2)NC(=O)[C@@H](NC(=O)[C@H](N)Cc2ccc(N)c(I)c2)CSSC[C@@H](C(=O)N[C@@H](CC(=O)O)C(N)=O)NC1=O` 8.54

// query pIC50 value for entry `CC(C)[C@@H]1NC(=O)[C@H](CCCCN)NC(=O)[C@@H](Cc2c[nH]c3ccccc23)NC(=O)[C@H](Cc2ccc(O)cc2)NC(=O)[C@@H](NC(=O)[C@H](N)Cc2ccc(N)cc2)CSSC[C@@H](C(=O)N[C@@H](CC(=O)O)C(N)=O)NC1=O` 7.27

// query pIC50 value for entry `CC(C)[C@@H]1NC(=O)[C@H](CCCCN)NC(=O)[C@@H](Cc2c[nH]c3ccccc23)NC(=O)[C@H](Cc2ccc(O)cc2)NC(=O)[C@@H](NC(=O)[C@H](N)Cc2ccc(N)cc2)CSSC[C@@H](C(=O)N[C@H](CC(=O)O)C(N)=O)NC1=O` 7.52
